Hello, the source for this data is patent US20260242478A1, in case you need it.

target: T1, Anti-CD28 Fab (SEQ ID NOs: 696, 697); test: phage ELISA on captured anti-CD28 Fab, wells pre-incubated with CD28 antigen as competitor;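 also: crude clonal phage supernatants added without washing, bound phage read out by HRP-coupled anti-M13 antibody, reference wells given blocking buffer only instead of CD28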
T1 construct: In the phage ELISA the Fab was biotinylated and captured on neutravidin coated plates
T1 sequence (VH, as listed by the source, chain 1 of 2): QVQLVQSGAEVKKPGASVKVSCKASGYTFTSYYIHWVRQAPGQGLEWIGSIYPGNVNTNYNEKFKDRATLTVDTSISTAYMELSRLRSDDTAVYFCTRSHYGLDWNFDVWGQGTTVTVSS
T1 sequence (VL, as listed by the source, chain 2 of 2): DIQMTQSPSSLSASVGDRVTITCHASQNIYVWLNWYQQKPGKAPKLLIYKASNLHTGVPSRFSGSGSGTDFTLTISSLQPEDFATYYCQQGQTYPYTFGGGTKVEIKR
measure_name: Anti-CD28 Fab signal in the presence of CD28 (phage binding ELISA)

* YCDGHTPEYMWKCL [Phage-1054] | 0.06
* YCDGHLDEYMLKCL [Phage-1053] | 0.06
* YCDGHSHEYMQKCL [Phage-1061] | 0.06
* YCAGHAEEYLEKCL [Phage-1060] | 0.15
* YCQGHSPNYITKCF [Phage-1058] | 0.06
